- System: adult, female insects of the Musca domestica species
- assay: whole plant or invertebrate
- Assay type: in vivo
- condition context: compound 1.25% w/v + tetramethrin 0.25% w/v in acetone; 0.5 μl topical; after 24 hours
property: Mortality (%)
Just the number please, in %, no unit attached.

Examples from the recorded data:
[[record]]
molecule_smiles = "CCCCCCCCCCc1cc2c(cc1COCCOCCOCCCC)OCO2"
experimental_target = "adult, female insects of the Musca domestica species"
meas_value = 80

[[record]]
molecule_smiles = "CCCCOCCOCCOCc1cc2c(cc1CCCC)OCO2"
experimental_target = "adult, female insects of the Musca domestica species"
meas_value = 80

[[record]]
molecule_smiles = "CCCCCCCCc1cc2c(cc1COCCOCCOCCCC)OCO2"
experimental_target = "adult, female insects of the Musca domestica species"
meas_value = 100


Okay, next one:
Given the entry CCCCCCc1cc2c(cc1COCCOCCOCCCC)OCO2 , what Mortality was observed with adult, female insects of the Musca domestica species?
100
